Provenance of the data: paper PMC9290024

Test: Stability in mouse hepatocytes
Type: in vitro ADME
Settings: 0.5 μM, 60 min
The reader will find reported scaled Clint, mouse hepatocytes values listed item by item below.
The response must be a number in mL min^–1 kg^–1 with no trailing unit.

Study these solved cases before continuing.
                                   compound                          readout        unit_spec  reported_measurement
0  CC(=O)N1CC[C@H]2[C@@H]1CCN2[C@H]1CCC[C@@H](NC(=O)c2cc3c(F)ccc(C)c3[nH]2)C1 [compound 9]  scaled Clint, mouse hepatocytes  mL min^–1 kg^–1                   103
1  CC(=O)N1CCN([C@H]2CCC[C@@H](NC(=O)c3cc4c(F)ccc(C)c4[nH]3)C2)CC1 [EZM0414]  scaled Clint, mouse hepatocytes  mL min^–1 kg^–1                   216
2  Cc1ccc(F)c2cc(C(=O)N[C@@H]3CCC[C@H](N4CCN5C(=O)CC[C@H]5C4)C3)[nH]c12 [compound 7]  scaled Clint, mouse hepatocytes  mL min^–1 kg^–1                   425
3  CC(=O)N1CCN(c2cccc(NC(=O)c3cc4c(F)ccc(C)c4[nH]3)c2)CC1 [compound 3]  scaled Clint, mouse hepatocytes  mL min^–1 kg^–1                   678
4  Cc1ccc(F)c2cc(C(=O)N[C@@H]3CCC[C@H](N4CC[C@H](N(C)S(C)(=O)=O)C4)C3)[nH]c12 [EPZ-719, reference compound]  scaled Clint, mouse hepatocytes  mL min^–1 kg^–1                   721

Qu. Need scaled Clint, mouse hepatocytes, item CC(=O)N1CC[C@H]2CN([C@H]3CCC[C@@H](NC(=O)c4cc5c(F)ccc(C)c5[nH]4)C3)C[C@H]21 [compound 8]
Ans. 889

* * *

Assay: Stability in human hepatocytes
Format: in vitro ADME
Conditions: 0.5 μM, 120 min
Readout: scaled Clint, human hepatocytes (mL min^–1 kg^–1)
The response must be a number in mL min^–1 kg^–1 with no trailing unit.

                                   molecule                          readout  reported_measurement
0  Cc1ccc(F)c2cc(C(=O)N[C@@H]3CCC[C@H](N4CC[C@H](N(C)S(C)(=O)=O)C4)C3)[nH]c12 [EPZ-719, reference compound]  scaled Clint, human hepatocytes                    51
1  Cc1ccc(F)c2cc(C(=O)N[C@@H]3CCC[C@H](N4CCN5C(=O)CC[C@H]5C4)C3)[nH]c12  scaled Clint, human hepatocytes                    23
2  CC(=O)N1CCN([C@H]2CCC[C@@H](NC(=O)c3cc4c(F)ccc(C)c4[nH]3)C2)CC1  scaled Clint, human hepatocytes                     9

Qu. Need scaled Clint, human hepatocytes, item CC(=O)N1CCN(c2cccc(NC(=O)c3cc4c(F)ccc(C)c4[nH]3)c2)CC1
Ans. 32

Qu. Here is the next molecule: CC(=O)N1CC[C@H]2[C@@H]1CCN2[C@H]1CCC[C@@H](NC(=O)c2cc3c(F)ccc(C)c3[nH]2)C1
Ans. 5

Qu. Here is the next molecule: CC(=O)N1CC[C@H]2CN([C@H]3CCC[C@@H](NC(=O)c4cc5c(F)ccc(C)c5[nH]4)C3)C[C@H]21
Ans. 18
